measured-on: 13 DB-1
experimental-protocol: CELIA on monoclonal 13 DB-1; coated antigen not given
pIC50: −log10 of the molar value. Where no end group is shown, it is not given here.
parameter: pIC50

(I) Ac-ISRRLIDRTNANFLC (not fully specified; printed as Ac-25I-S-R-R-L-I-D-R-T-N-A-N-F-L38-C) [GP4]
(II) Ac-ISRRLIDRTNANFLVWPPC [GP10]
Asked: Between these two entries, I and II , state which has the higher pIC50. Record your answer as the label of the chosen record.
Given back: I
